Test: Toxicity liver stage against HepG2, at 10uM
Assay type: cell-based
Set-up: test concentration 10 uM, cell line HepG2-A16-CD81EGFP
Settings: human, HepG2-A16-CD81EGFP cells; read-out: INHIBITION
Each entry below carries its reported cytotoxicity at 10 µM.
Dear colleague, please return just the value in %, with no unit written.

Solved cases below.
- O=C(O)c1ccccc1-c1c(-c2ccccc2)ncn1C[C@H]1CCCN1: 6.07
- NC(=O)CN(CC(=O)NCc1cc(F)cc(F)c1)C1CCCC1: -8.58
- Cc1ccccc1N1CC2(CCN(Cc3nccn3C)C2)CC1=O (centres undefined): -81.3
- Cc1ccccc1C(Nc1ncnc2c1CCNC2)c1ccccc1 (centres undefined): 7.78
- COc1cccc(CNC(=O)c2nc3c(o2)CN(C(=O)N(C)C)C3)c1: -1.68
- CC(C)c1nnc2n1CCN(c1nc3ccccc3o1)C2: 4.12

Exercise: Which value of cytotoxicity at 10 µM has been reported for O=C(c1cccnc1)N1CCC2(CNS(=O)(=O)c3cnccc3O2)C1 (centres undefined) in the records?
Key: 15.7

Exercise: Repeat with `CN(C)C(C)(C)CNC(=O)C(C)(C)c1ccccc1F`
Key: -11.2

Exercise: Would you kindly repeat that for `CN(C)c1cnn(CC(=O)N2CCCCCC2)c(=O)c1` ?
Key: -10.6

Exercise: Likewise for COCCC(=O)N1CCC2(CC1)CC(c1ccccc1)CN(C)C2 (centres undefined) ?
Key: -14.4

Exercise: Now the molecule `COc1ccccc1CC(=O)N1C[C@@H]2CC[C@H]1CN(Cc1cscn1)C2`
Key: -1.87

Exercise: Next entry: `CN(C)c1cc2c(nn1)CCN(C(=O)c1cc3ccccc3[nH]c1=O)C2`
Key: 3.99

Exercise: Now give it for CC(=O)N1CCc2c(nc(N(C)C)nc2NC(C)Cc2cccs2)C1 (centres undefined) too.
Key: -42.9

Exercise: Next up: `COc1ccc(-n2c(SC)nc(O)c(Cc3ccccc3)c2=O)cc1`
Key: -7.52

Exercise: Do the same for O=C(CCOCC(F)(F)F)N1CCCC1c1noc(C2CC2)n1 (centres undefined) please
Key: 0.111

Exercise: Moving on to `O=c1c(CN2CCCCC2)coc2ccc(Cl)cc12`
Key: -2.56

Exercise: Subsequent entry: Cc1cnn(CC2CCCN2C(=O)Cc2c(C)noc2C)c1 (centres undefined)
Key: 0.983

Exercise: One more molecule: CC(C)CN1CCC(NC(C)c2ccccc2-n2cccn2)CC1 (centres undefined)
Key: 1.06

Exercise: Okay, and COCCn1cc(C(=O)N2CCCC2c2cnn(C)c2)ccc1=O (centres undefined) ?
Key: 5.92

Exercise: What do we get for `Cc1cc(C)cc(C(=O)NCCCNc2ncccn2)c1` ?
Key: 32.4

Exercise: Now the same for CNc1nc(C(=O)N2CCC3(CCCN(CCOC)C3=O)C2)cs1 (centres undefined)
Key: 7.55

Exercise: Moving on to the next molecule: CS(=O)(=O)c1ccc(-c2cc(O)cc(CCC3CCCCN3)c2)cc1 (centres undefined)
Key: 0.292

Exercise: Please answer likewise for CCS(=O)(=O)N1CCCC2(COCCN(c3nnc(C)o3)C2)C1 (centres undefined)
Key: 8.88

Exercise: Could you do the same for `O=C1CCc2cc(S(=O)(=O)NC(=O)c3ccc4c(c3)CCO4)ccc2N1` , please?
Key: -17.7

Exercise: Also `NC(=O)c1cccnc1N1C[C@H]2CC[C@@H](C1)N(Cc1ccccn1)C2=O` ?
Key: 7.94
